# System: MOLM14
# experimental protocol: cell viability relative to vehicle control; higher = less cytotoxic;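 note: after 48 h exposure read by CellTiter-Glo luminescence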
# reported conditions: 10 µM; SRSF2 genotype: SRSF2 P95H/wt
assay endpoint: cell viability (%)
Answers are plain numbers, in %.

// below: answered compounds
INSERT INTO results (compound, assay_endpoint, recorded_measurement) VALUES
  ('CC1=CCC(=C(C)C)C(=O)CC(C)=CCC1', 'cell viability', 110),
  ('CC(C)N(CCC(=O)c1ccc2ccccc2c1)Cc1ccccc1', 'cell viability', 0.58);

For each of the compounds below, state cell viability.
1. C1=Cc2ccccc2Nc2ccccc21
2. COc1ccc(Cl)cc1C(=O)NCCc1ccc(S(=O)(=O)NC(=O)NC2CCCCC2)cc1 [Glyburide (Glibenclamide)]
3. CCOc1cc(C(C)(C)C)ccc1C1=N[C@@](C)(c2ccc(Cl)cc2)[C@@](C)(c2ccc(Cl)cc2)N1C(=O)N1CCN(CCCS(C)(=O)=O)CC1
4. C[C@]12C=CC(=O)C=C1CC[C@@H]1[C@@H]2[C@@H](O)C[C@@]2(C)[C@H]1CC[C@]2(O)C(=O)CO
5. C=CC(=O)N1CCC[C@@H](n2nc(-c3ccc(Oc4ccccc4)cc3)c3c(N)ncnc32)C1
6. O=C(NNc1ccccc1)c1ccncc1
7. C[C@@](Cc1ccc(O)c(O)c1)(NN)C(=O)O

[105, 108, 0.32, 98.5, 16.5, 93.5, 93.3]

----------
# Tested on: OCI-AML2
# experimental protocol: cell viability relative to vehicle control; higher = less cytotoxic
# reported conditions: 10 µM; SRSF2 genotype: wt/wt
assay endpoint: cell viability (%)
Give bare numbers, in %.

INSERT INTO results (compound, assay_endpoint, recorded_measurement) VALUES
  ('Fc1ccc(Cn2c(Cl)nc3ccccc32)cc1', 'cell viability', 36.5);

Working through the 8 compounds below one at a time, give cell viability for each.
1. CCNC(=O)C#Cc1ccc2c(C(=Nc3ccc(CN(C)C)cc3)c3ccccc3)c(O)[nH]c2c1
2. CN(C)CC(=O)Nc1ccc2[nH]c(=O)c3ccccc3c2c1
3. O=C1NC(=O)/C(=C/c2ccc3nccc(-c4ccncc4)c3c2)S1
4. O=c1[nH]c(=O)n([C@H]2C[C@H](O)[C@@H](CO)O2)cc1F
5. CCOC(=O)C1=C(N)Oc2ccc(Cl)cc2C1C(C#N)C(=O)OCC (centres undefined)
6. CCCc1cc2c(N3CCN(C4=NCC(C)(C)S4)CC3)ncnc2s1
7. O=C(c1ccc(F)cc1)C1CCN(CCn2c(=O)[nH]c3ccccc3c2=O)CC1
8. Cc1cc(N2CCOCC2)cc2[nH]c(-c3c(NCC(O)c4cccc(Cl)c4)cc[nH]c3=O)nc12 (centres undefined)

1. 17.2
2. 98.4
3. 28.8
4. 48.8
5. 64.2
6. 53.3
7. 109
8. 18

----------
# Tested on: MARIMO
# experimental protocol: cell viability relative to vehicle control; higher = less cytotoxic
# reported conditions: 10 µM; SRSF2 genotype: SRSF2 wt/wt
Where a name gives a salt, the structure may show the parent alone.
assay endpoint: cell viability (%)
One number for each entry, in %.

INSERT INTO results (compound, units_of_measure, recorded_measurement) VALUES
  ('Nc1ccc(S(=O)(=O)Nc2ccccn2)cc1 [Sulfapyridine (Dagenan)]', '%', 107),
  ('Nc1nc2cc(-c3ccc4ncc(C(=O)N5CCOCC5)n4c3)ccc2o1 [Serabelisib (INK-1117,MLN-1117,TAK-117)]', '%', 72.4),
  ('CN(C)c1ccc2c(c1)Sc1cc(N(C)C)ccc1N2 [TRx0237 (LMTX) mesylate]', '%', 18.9);

Please give cell viability, item by item, for the list that follows.
1. CC1(C)S[C@@H]2[C@H](NC(=O)[C@H](N)c3ccccc3)C(=O)N2[C@H]1C(=O)OCOC(=O)[C@@H]1N2C(=O)C[C@H]2S(=O)(=O)C1(C)C [Sultamicillin]
2. O=C(O)c1cc2cccc([N+](=O)[O-])c2[nH]1
3. NCCCCCN [Cadaverine]

101
107
101

Hi, could you look up cell viability for each item in my list?
1. Oc1ccc(-c2c(-c3ccccc3)nn3c(C(F)(F)F)cc(C(F)(F)F)nc23)cc1
2. O=C(C1CCCCC1)N1CC(=O)N2CCc3ccccc3C2C1 (centres undefined) [Praziquantel (Biltricide)]
3. O=c1[nH]c(=O)n([C@H]2C[C@H](O)[C@@H](CO)O2)cc1/C=C/Br [Brivudine]
4. O=C(O)CCCc1ccccc1 [Sodium Phenylbutyrate]
5. Cc1ccc(Cl)c(Nc2ccccc2C(=O)O)c1Cl [Meclofenamate sodium]
6. O=C1c2ccccc2C(=O)C1c1ccccc1 [Phenindione (Rectadione)]
7. C/C=C(/C)C(=O)OC(C)(C)[C@@H]1Cc2c(ccc3ccc(=O)oc23)O1 [Columbianadin]
8. OC[C@H]1O[C@@H](c2ccc(Cl)c(Cc3ccc(O[C@H]4CCOC4)cc3)c2)[C@H](O)[C@@H](O)[C@@H]1O

1. 93.3
2. 107
3. 102
4. 109
5. 96.4
6. 104
7. 86.5
8. 102

I would be grateful if you could provide cell viability for each of the following entries.
1. C=C[C@]1(C)C[C@@H](OC(=O)CSCCN(CC)CC)[C@]2(C)[C@H](C)CC[C@]3(CCC(=O)[C@H]32)[C@@H](C)[C@@H]1O [Tiamulin]
2. CC(C)(Sc1ccncc1-c1ccc(C#N)c2ccccc12)C(=O)O [Verinurad (RDEA3170)]
3. OC[C@H]1O[C@@](CO)(O[C@H]2O[C@H](CO)[C@@H](O)[C@H](O)[C@H]2O)[C@@H](O[C@H]2O[C@H](CO)[C@@H](O)[C@H](O)[C@H]2O)[C@@H]1O [Melezitose]
4. Clc1ccc(C(Cn2ccnc2)OCc2c(Cl)cccc2Cl)c(Cl)c1 (centres undefined) [Isoconazole nitrate (Travogen)]

92.8
104
111
73.2

Please report cell viability for every entry that follows.
1. CS(=O)(=O)c1ccc(-c2nnc(/C=C/c3nnc(-c4ccc(C#N)cc4)o3)n2-c2ccccc2Cl)nc1
2. Cc1cccc(Nc2cc(Cl)nc(SCC(=O)O)n2)c1C
3. C=C1C[C@@]23CC[C@H]4[C@@](C)(CCC[C@@]4(C)C(=O)O)[C@@H]2CC[C@]1(O[C@@H]1O[C@@H](CO)[C@@H](O)[C@H](O)[C@@H]1O[C@@H]1O[C@@H](CO)[C@@H](O)[C@H](O)[C@@H]1O)C3 [Steviolbioside]
4. O=C(NCC1(c2nc(-c3ccccc3)cs2)CCOCC1)c1cccc(-c2noc(C(F)(F)F)n2)c1
5. O=c1c(O)c(-c2ccc(O)c(O)c2)oc2cc(O)cc(O)c12 [Quercetin dihydrate (Sophoretin)]

[108, 99.9, 99.5, 85.5, 98]

Look up cell viability for the entries below, preserving their order.
1. CO/N=C(\C(=O)N[C@@H]1C(=O)N2C(C(=O)OC(C)OC(C)=O)=C(COC(N)=O)CS[C@H]12)c1ccco1 (some centres undefined) [Cefuroxime axetil]
2. Cc1ccc2c(=O)c3cccc(CC(=O)O)c3oc2c1C [DMXAA (Vadimezan)]
3. CNCc1ccc(-c2cc(-c3nc(-c4ccc(S(=O)(=O)C(C)C)cc4)cnc3N)on2)cc1

[104, 102, 0.32]

Look at each compound and report its cell viability.
1. C[C@H]1[C@H](C)CC[C@]2(C(=O)O[C@@H]3O[C@H](CO[C@@H]4O[C@H](CO)[C@@H](O[C@@H]5O[C@@H](C)[C@H](O)[C@@H](O)[C@H]5O)[C@H](O)[C@H]4O)[C@@H](O)[C@H](O)[C@H]3O)CC[C@]3(C)C(=CC[C@@H]4[C@@]5(C)C[C@@H](O)[C@H](O)[C@@](C)(CO)[C@@H]5[C@H](O)C[C@]43C)[C@H]12 [Madecassoside]
2. COc1cc(/C=C/C(=O)O[C@H]2CC[C@]34C[C@]35CC[C@]3(C)[C@@H]([C@H](C)CCC=C(C)C)CC[C@@]3(C)[C@@H]5CC[C@H]4C2(C)C)ccc1O [Gamma-Oryzanol]
3. COc1ccc2cc3[n+](cc2c1OC)CCc1cc2c(cc1-3)OCO2 [Berberine]

111
107
62.1

----------
# Tested on: OCI-AML2
# experimental protocol: cell viability relative to vehicle control; higher = less cytotoxic
# reported conditions: 10 µM; SRSF2 genotype: wt/wt
Counter-ions that a name gives are not always drawn.
I'd be grateful if you could share measured cell viability for these entries.
Numbers only, in %.

INSERT INTO assay_data (compound, recorded_measurement) VALUES
  ('COc1cc2c3cc1Oc1c(OC)c(OC)cc4c1[C@@H](Cc1ccc(O)c(c1)Oc1ccc(cc1)C[C@@H]3N(C)CC2)N(C)CC4 [Berbamine (dihydrochloride)]', 60.4),
  ('Cc1ccccc1N1C(=O)c2cc(S(N)(=O)=O)c(Cl)cc2NC1C (centres undefined) [Metolazone (Zaroxolyn)]', 98.3),
  ('O=C(Oc1cccc(F)c1OC(=O)c1cccc(O)c1)c1cccc(O)c1', 82.4);

Now consider a different compound.
Identify the reported cell viability for the following entry. CC1(C)S[C@@H]2[C@H](NC(=O)Cc3ccccc3)C(=O)N2[C@H]1C(=O)O [Penicillin G Sodium]
109
